B1: library; a variant is named by its letters at N, in order (parent)
chain: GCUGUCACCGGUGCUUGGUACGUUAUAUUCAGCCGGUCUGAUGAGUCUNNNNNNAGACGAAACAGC

Variants of: B1
Assay: FACS-Seq fitted mean relative fluorescence mCherry/BFP without ligand (log10 relative fluorescence); HEK293T overexpressing SLC46A1; higher = higher reporter protein expression
Details: without (6R,S)-folinic acid; ligand present: no
FACS-Seq fitted mean (log10) below 0.4 gives Not met; FACS-Seq fitted mean (log10) at or above it gives Met.

UAGUAA: Not met
ACUAAG: Met
AAGGUG: Met
UAAAGC: Not met
GAGAGG: Not met
UGGUAU: Not met
UGUGUA: Met
UGUUUU: Not met
CGAGAA: Not met
AAGACA: Met
AGCAGA: Not met
CAAAAC: Met
UACUGC: Not met
AGUUGC: Met
AACGAG: Not met
CAGAAU: Not met
UUUGGG: Not met
ACACAU: Not met
CAAAAU: Not met
GAGCCA: Not met
GACGGA: Not met
AUUGAA: Met
ACCGAA: Not met
AAUCGG: Met
GAUAAU: Not met
GGCAUA: Not met
CCAGUG: Met
GAAGGC: Met
UAUAGG: Not met
CAAUUC: Not met
UGUACU: Not met
ACCGUU: Not met
AAAGAA: Not met
GUAUAG: Not met
UCGGAU: Not met
UACCAC: Met
GUCGAC: Met
UCGGCC: Met
AGCCGU: Met
GGAAGA: Not met
UAGGGU: Met
UAUUUU: Not met
CGGAUA: Not met
GUAAGG: Not met
GUGUAC: Not met
GUAUGC: Not met
CCACGU: Met
GGAGUA: Not met
CAGUUA: Not met
UACCCG: Not met
AGGUGA: Met
CAAGAG: Not met
AAUGCG: Not met
GAAGUU: Met
CAGAAA: Not met
UAGUAU: Not met
AACUCG: Not met
UCGACU: Not met
GCGUAG: Not met
UAUUGG: Not met
UGCAUU: Not met
UGCAAA: Met
UGUUGG: Not met
UGUAUC: Not met
GCUACA: Not met
UAUCCG: Not met
UGUAAG: Not met
UAUUUG: Not met
GUGUGU: Not met
UAUCAU: Not met
AGAUAA: Not met
UGCAGG: Not met
GUCAGG: Not met
AAGUAG: Met
AUGGGA: Not met
ACUGUG: Met
CAAACU: Met
ACAGCA: Met
UUGAGG: Not met
UAGAAG: Not met
GACGAG: Not met
AACGCC: Met
CAUAAU: Not met
CUGAAA: Not met
ACAAAC: Met
GUUGAG: Met
GUUUUC: Met
ACUCAA: Not met
